# Test system: IL-1α
# Protocol Description: Test for an Activity of Inhibiting IL-1α Expression (ELISA, UVB-irradiated human epidermal cells)
# Assay type: cell-based
# Measurement Conditions: light or radiation study, 24 h, concentration 10 μM, read-out: inhibitory rate (%) of IL-1α expression
Use Satisfied when the recorded inhibition at 10 µM is no lower than 50%; use Not satisfied when it is lower.

The following molecules have reported results that may help.
CCCCCCCCCCCCNC(=O)[C@H](C)NCc1ccccc1O	Satisfied
CCCCCCCCCCCCOC(=O)[C@H](CCC(=O)O)NCc1ccccc1O	Satisfied
CCCCCCCCCCCCOC(=O)[C@H](C)NCc1ccccc1O	Not satisfied
CCCCCCCCCCCCOC(=O)[C@@H](C)NCc1ccccc1O	Not satisfied
CCCCCCCCCCCCCCCCCCNC(=O)[C@H](C)NCc1ccccc1O	Satisfied
C[C@H](NCc1ccccc1O)C(=O)O [N-(2-hydroxybenzyl)-L-alanine]	Satisfied
CCCCCCCCCCCCNC(=O)[C@@H]1CCC(=O)N1Cc1ccccc1O	Not satisfied
CCCCCCCCCCCCNC(=O)[C@H](Cc1ccc(O)cc1)NCc1ccccc1O	Satisfied

Incoming: Does inhibition at 10 µM meet or surpass 50% for `CCCCCCCCCCCCOC(=O)[C@H](CO)NCc1ccccc1O` ?
Outgoing: Not satisfied

Incoming: Does inhibition at 10 µM meet or surpass 50% for `CCCCCCCCCCCCCCCCCCOC(=O)[C@H](C)NCc1ccccc1O` ?
Outgoing: Not satisfied

Incoming: Does inhibition at 10 µM meet or surpass 50% for C[C@@H]1C[C@H]2[C@@H]3CCC4=CC(=O)C=C[C@]4(C)[C@@]3(F)[C@@H](O)C[C@]2(C)[C@@]1(O)C(=O)CO [dexamethasone, reference compound] ?
Outgoing: Not satisfied

----------
# Test system: NF-κB
# Protocol Description: Test for an Activity of Inhibiting NF-κB Activation (gel shift assay, UVB-irradiated human epidermal cells)
# Assay type: cell-based
# Measurement Conditions: light or radiation study, concentration 10 μM, read-out: inhibitory rate (%) of NF-κB activation
Use yes when the recorded inhibition at 10 µM is no lower than 30%; use no when it is lower.

The following compounds have reported results that may help.
CCCCCCCCCCCCNC(=O)[C@@H](C)NCc1ccccc1O	no
CCCCCCCCCCCCOC(=O)[C@H](CC(C)C)NCc1ccccc1O	no
CCCCCCCCCCCCNC(=O)[C@H](Cc1ccc(O)cc1)NCc1ccccc1O	yes
CCCCCCCCCCCCOC(=O)[C@H](C)NCc1ccccc1O	no

Incoming: Does inhibition at 10 µM meet or surpass 30% for `CCCCCCCCCCCCNC(=O)[C@H](CCCNC(=N)N)NCc1ccccc1O` ?
Outgoing: no

----------
# System: AP-1
# Protocol Description: Test for an Activity of Inhibiting AP-1 Activation (gel shift assay, UVA-irradiated human dermal fibroblasts)
# Type: cell-based
# Measurement Conditions: AP1, light or radiation study, concentration 1 μM, read-out: inhibitory rate (%) of AP-1 activation
inhibition at 1 µM: recorded values
Report the value in % with no unit label.

Below: 5 compounds and their reported inhibition at 1 µM.
CCCCCCCCCCCCCCCCCCOC(=O)[C@H](C)NCc1ccccc1O	20
C[C@@H]1C[C@H]2[C@@H]3CCC4=CC(=O)C=C[C@]4(C)[C@@]3(F)[C@@H](O)C[C@]2(C)[C@@]1(O)C(=O)CO [dexamethasone, reference compound]	39
CCCCCCCCCCCCOC(=O)[C@H](CO)NCc1ccccc1O	43
CCCCCCCCCCCCOC(=O)[C@H](Cc1ccc(O)cc1)NCc1ccccc1O	19
CCCCCCCCCCCCCCCCCCNC(=O)[C@H](C)NCc1ccccc1O	72

// below: inhibition at 1 µM requested for another compound
Incoming: Complete the entry with inhibition at 1 µM for `CCCCCCCCCCCCNC(=O)[C@@H](C)NCc1ccccc1O`
Outgoing: 14

Ref: patent US6552061B1
